# Ki annotations
MEASURED_TARGET: Recombinant human hepsin (4776-SE-010, R&D Systems), activated (human, UniProt P05981)
EXPERIMENT_DESCRIPTION: fluorogenic inhibition assay
Text: […]
*: point of attachment. kbt‑6‑CONH‑4‑piperidine = ketobenzothiazole-6-CONH-4-piperidine (Kbt-4-piperidinylamide), O=C(NC1CCNCC1)c1ccc2nc(*)sc2c1; kbt‑6‑CONH‑4‑pyridine = ketobenzothiazole-6-CONH-4-pyridine (Kbt-4-pyridinylamide), O=C(Nc1ccncc1)c1ccc2nc(*)sc2c1; kbt = C-terminal ketobenzothiazole, c1ccc2sc(*)nc2c1; Fmoc = O=C(OCC1c2ccccc2-c2ccccc21)*
ENDPOINT: Ki (nM)

>>> quantitative_readout("Ac-SKLR-{kbt‑6‑CONH‑4‑piperidine} [Ac-SKLR(SEQ ID NO: 10)-Kbt-4-piperidinylamide]")
0.2
>>> quantitative_readout("Ac-SKLR-{kbt‑6‑CONH‑4‑pyridine} [Ac-SKLR(SEQ ID NO: 10)-Kbt-4-pyridinylamide]")
0.14
>>> quantitative_readout("Fmoc-Ser-Arg-kbt [Fmoc-SR-kbt]")
886
>>> quantitative_readout("H-Arg-Leu-Arg-{kbt-Val-NH2} [H-RLR-kbt-Val-NH2]")
0.44
